Collected % Inhibition, mean (n = 3), IGF-I Proliferation Assay, NIH3T3/hIGF-IR cells values appear next to each entry.
# measurement_target: human insulin-like growth factor-I (IGF-I) (human, UniProt P05019 49-118)
# assay_name: cell-based or functional assay
experimental_readout: % Inhibition, mean (n = 3), IGF-I Proliferation Assay, NIH3T3/hIGF-IR cells (%)

{"binder": "mAb 7.34.1 (antibody, V domains shown, Fully human XenoMouse hybridoma mAb, lambda light chain (V1-13/JL2); also called ATCC PTA-7423) VH: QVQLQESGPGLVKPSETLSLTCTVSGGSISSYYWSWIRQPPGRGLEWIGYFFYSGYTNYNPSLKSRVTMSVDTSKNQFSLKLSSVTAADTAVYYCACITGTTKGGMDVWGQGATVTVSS VL: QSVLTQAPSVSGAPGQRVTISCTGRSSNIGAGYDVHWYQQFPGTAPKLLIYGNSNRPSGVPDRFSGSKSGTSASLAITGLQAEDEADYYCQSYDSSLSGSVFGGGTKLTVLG", "result_units": "%", "readout_number": 72.6}
{"binder": "mAb 7.159.2 (antibody, V domains shown, Fully human XenoMouse hybridoma mAb, lambda light chain (V1-19/JL2); Sister clones 7.159.1 and 7.159.2 are said to be identical; also called 7.159.1; 7_159_1) VH: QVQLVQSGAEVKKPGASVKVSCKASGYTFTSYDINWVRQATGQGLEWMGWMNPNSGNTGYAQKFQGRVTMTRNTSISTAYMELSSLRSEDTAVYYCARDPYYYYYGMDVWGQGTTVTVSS VL: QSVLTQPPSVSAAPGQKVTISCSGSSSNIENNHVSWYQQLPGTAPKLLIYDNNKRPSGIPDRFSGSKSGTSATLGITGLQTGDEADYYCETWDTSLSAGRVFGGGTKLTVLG", "result_units": "%", "readout_number": 77}
{"binder": "mAb 7.158.2 (antibody, V domains shown, Kappa light chain (L5/JK3); also called 7.158.1; 7_158_1) VH: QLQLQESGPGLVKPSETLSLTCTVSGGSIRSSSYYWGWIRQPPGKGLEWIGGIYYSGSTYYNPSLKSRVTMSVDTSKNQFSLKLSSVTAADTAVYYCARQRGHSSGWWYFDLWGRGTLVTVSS VL: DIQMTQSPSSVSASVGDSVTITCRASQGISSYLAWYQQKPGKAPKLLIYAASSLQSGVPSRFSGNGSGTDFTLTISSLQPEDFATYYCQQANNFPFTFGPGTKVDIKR", "result_units": "%", "readout_number": 57.4}
{"binder": "mAb 7.234.2 (antibody, V domains shown, Kappa light chain (L5/JK3); also called 7.234.1; 7_234_1) VH: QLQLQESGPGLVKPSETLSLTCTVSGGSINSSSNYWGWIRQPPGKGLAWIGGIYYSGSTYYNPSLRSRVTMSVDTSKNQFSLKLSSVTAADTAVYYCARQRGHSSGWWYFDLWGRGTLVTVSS VL: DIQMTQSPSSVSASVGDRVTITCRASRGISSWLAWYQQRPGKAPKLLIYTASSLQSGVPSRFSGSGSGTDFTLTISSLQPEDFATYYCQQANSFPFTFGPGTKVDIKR", "result_units": "%", "readout_number": 67.3}
